As shown below, each of these binders has a reported Kd value.
target: T1, recombinant mouse integrin-αvβ1 (mouse, UniProt P43406 31-988; P09055 21-728, limits assumed); assay: IgG titration on recombinant mouse integrin αvβ1, one site-total fit; assay format not stated
T1 construct: also called Recombinant Mouse Integrins
T1 sequence (P43406 31-988 limits assumed, chain 1 of 2): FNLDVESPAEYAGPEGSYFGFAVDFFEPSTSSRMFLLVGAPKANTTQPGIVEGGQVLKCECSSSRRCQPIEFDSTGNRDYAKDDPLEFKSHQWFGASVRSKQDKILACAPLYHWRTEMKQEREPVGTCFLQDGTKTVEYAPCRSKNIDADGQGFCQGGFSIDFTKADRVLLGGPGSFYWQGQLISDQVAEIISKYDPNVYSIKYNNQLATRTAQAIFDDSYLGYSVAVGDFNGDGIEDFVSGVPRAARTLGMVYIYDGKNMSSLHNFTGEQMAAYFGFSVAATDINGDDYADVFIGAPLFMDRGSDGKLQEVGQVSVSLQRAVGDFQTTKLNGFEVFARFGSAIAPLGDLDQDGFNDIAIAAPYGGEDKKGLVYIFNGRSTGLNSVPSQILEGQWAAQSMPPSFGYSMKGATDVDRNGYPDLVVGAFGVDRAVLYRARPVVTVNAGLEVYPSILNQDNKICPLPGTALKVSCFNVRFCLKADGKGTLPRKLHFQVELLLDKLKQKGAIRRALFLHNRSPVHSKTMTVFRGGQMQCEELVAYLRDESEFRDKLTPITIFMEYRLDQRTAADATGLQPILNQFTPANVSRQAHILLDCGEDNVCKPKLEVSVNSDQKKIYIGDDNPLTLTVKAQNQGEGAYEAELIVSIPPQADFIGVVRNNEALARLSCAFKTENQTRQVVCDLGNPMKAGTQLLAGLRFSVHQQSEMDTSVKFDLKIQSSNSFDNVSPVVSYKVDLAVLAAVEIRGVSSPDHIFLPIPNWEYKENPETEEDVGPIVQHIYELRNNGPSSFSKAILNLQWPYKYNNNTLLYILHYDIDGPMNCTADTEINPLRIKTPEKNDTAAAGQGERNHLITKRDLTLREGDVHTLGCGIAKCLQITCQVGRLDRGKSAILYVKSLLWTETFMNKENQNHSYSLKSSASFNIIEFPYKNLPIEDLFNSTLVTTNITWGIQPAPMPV
T1 sequence (P09055 21-728 limits assumed, chain 2 of 2): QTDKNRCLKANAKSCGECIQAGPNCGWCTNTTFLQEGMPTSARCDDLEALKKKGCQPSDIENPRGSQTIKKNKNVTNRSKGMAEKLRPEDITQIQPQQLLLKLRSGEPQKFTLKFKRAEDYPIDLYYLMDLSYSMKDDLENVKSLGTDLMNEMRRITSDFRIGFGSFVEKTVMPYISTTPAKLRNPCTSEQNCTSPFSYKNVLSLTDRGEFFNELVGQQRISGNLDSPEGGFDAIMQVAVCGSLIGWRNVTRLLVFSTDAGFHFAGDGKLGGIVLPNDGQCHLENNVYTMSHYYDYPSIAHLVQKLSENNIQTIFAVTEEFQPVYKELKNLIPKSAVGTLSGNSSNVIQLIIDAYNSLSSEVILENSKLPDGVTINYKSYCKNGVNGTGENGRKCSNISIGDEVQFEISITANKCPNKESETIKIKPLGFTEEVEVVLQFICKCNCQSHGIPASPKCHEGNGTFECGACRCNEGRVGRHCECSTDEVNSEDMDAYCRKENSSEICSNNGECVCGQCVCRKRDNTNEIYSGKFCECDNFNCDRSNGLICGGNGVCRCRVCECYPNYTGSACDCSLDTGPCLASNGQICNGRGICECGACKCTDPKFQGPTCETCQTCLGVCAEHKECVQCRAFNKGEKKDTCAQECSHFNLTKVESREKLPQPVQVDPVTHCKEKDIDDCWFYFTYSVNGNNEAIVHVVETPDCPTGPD
// units = nM; emit number, no label

>>> observed("10404 hG1 LALA PG/hk (antibody, V domains shown, not shown: human IgG1 constant region with 'LALA PG' changes) VH: EVQLVESGGGLVQPGGSLRLSCAASGFNLYSSSIHWVRQAPGKGLEWVAYIYPSYGYTSTYADSVKGRFTISADTSKNTAYLQMNSLRAEDTAVYYCARPAPYYSWYPAMDYWGQGTLVTVSS VL: DIQMTQSPSSLSASVGDRVTITCRASQSVSSAVAWYQQKPGKAPKLLIYSASSLYSGVPSRFSGSRSGTDFTLTISSLQPEDFATYYCQQASGSPFTFGQGTKVEIKR")
0.244
>>> observed("10392 hG1 LALA PG/hk (antibody, human IgG1, V domains shown, not shown: human IgG1 constant region with 'LALA PG' changes) VH: EVQLVESGGGLVQPGGSLRLSCAASGFNIYYSSIHWVRQAPGKGLEWVASISSSSGSTSTYADSVKGRFTISADTSKNTAYLQMNSLRAEDTAVYYCARSYYGGGYPYALDYWGQGTLVTVSS VL: DIQMTQSPSSLSASVGDRVTITCRASQSVSSAVAWYQQKPGKAPKLLIYSASSLYSGVPSRFSGSRSGTDFTLTISSLQPEDFATYYCQQYFGGLITFGQGTKVEIKR")
0.411
>>> observed("10404 hG4/hk (antibody, V domains shown, the IgG4 constant region used is not specified; not shown: human IgG4 constant region ('hG4')) VH: EVQLVESGGGLVQPGGSLRLSCAASGFNLYSSSIHWVRQAPGKGLEWVAYIYPSYGYTSTYADSVKGRFTISADTSKNTAYLQMNSLRAEDTAVYYCARPAPYYSWYPAMDYWGQGTLVTVSS VL: DIQMTQSPSSLSASVGDRVTITCRASQSVSSAVAWYQQKPGKAPKLLIYSASSLYSGVPSRFSGSRSGTDFTLTISSLQPEDFATYYCQQASGSPFTFGQGTKVEIKR")
0.358

Given 10392 hG4/hk (antibody, human IgG4, V domains shown, not shown: human IgG4 constant region ('hG4')) VH: EVQLVESGGGLVQPGGSLRLSCAASGFNIYYSSIHWVRQAPGKGLEWVASISSSSGSTSTYADSVKGRFTISADTSKNTAYLQMNSLRAEDTAVYYCARSYYGGGYPYALDYWGQGTLVTVSS VL: DIQMTQSPSSLSASVGDRVTITCRASQSVSSAVAWYQQKPGKAPKLLIYSASSLYSGVPSRFSGSRSGTDFTLTISSLQPEDFATYYCQQYFGGLITFGQGTKVEIKR , state its recorded Kd.
0.842

Given IgG clone 10392, hG1/hk (pSCSTa-hG1 (10392) heavy chain, pSCSTa-hK (10392) light chain) (antibody, V domains shown, Full-length human IgG1/kappa made in Expi293 cells) VH: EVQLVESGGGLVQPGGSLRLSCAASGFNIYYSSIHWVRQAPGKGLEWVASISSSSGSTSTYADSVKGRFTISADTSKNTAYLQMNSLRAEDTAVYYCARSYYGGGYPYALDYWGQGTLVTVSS VL: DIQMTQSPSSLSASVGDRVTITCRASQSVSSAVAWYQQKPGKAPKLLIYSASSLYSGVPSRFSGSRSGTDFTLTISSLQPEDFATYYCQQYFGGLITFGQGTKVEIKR , state its recorded Kd.
0.421
